The origin of these recorded values is paper PMC9691607.

- Assay target: HDAC4 (Homo sapiens, UniProt P56524)
- Sequence (P56524 627-1084 limits assumed): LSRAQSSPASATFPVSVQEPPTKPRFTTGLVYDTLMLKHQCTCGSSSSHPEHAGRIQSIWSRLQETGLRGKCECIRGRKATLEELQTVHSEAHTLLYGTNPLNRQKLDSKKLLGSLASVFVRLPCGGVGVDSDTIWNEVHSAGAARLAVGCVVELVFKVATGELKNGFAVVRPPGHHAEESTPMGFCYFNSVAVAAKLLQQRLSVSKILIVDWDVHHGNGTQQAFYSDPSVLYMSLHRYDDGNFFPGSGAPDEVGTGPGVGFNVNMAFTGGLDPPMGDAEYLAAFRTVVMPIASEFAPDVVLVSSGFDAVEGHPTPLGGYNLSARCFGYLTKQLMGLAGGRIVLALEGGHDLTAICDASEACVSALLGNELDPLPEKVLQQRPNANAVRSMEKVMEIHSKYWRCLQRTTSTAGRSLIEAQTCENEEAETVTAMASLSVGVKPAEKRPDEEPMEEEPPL
Test readout: pIC50
On this scale, pIC50 is minus log10 of a concentration expressed in M (mol/L).

Problem: State, for HDAC4 (Homo sapiens, UniProt P56524), measured pIC50 of the compound listed here: CN(C)c1ccc(C(=O)N(CC(=O)NCc2ccccc2)Cc2ccc(C(=O)NO)cc2)cc1 [DDK137]
Result: 5.57
